TARGET OR TEST SYSTEM: PARP1 ΔV687-E688 (ΔVE) (UniProt P09874 1-1014, del687-688)
TEST DESCRIPTION: fluorescence polarization
READOUT TYPE: Kd (nM)

[[record]]
binder = "18-bp DSB duplex (dsDNA) DNA 1: GGGTTGCGGCCGCTTGGG DNA 2: CCCAAGCGGCCGCAACCC"
measured = 9.4

